Test Name: chemical genetic growth profiling, strain panel (AID 1159580);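 further: tested at 20 µM; growth read once vehicle control cultures reached saturation at 30 °C; 1 = growth at the plate median or of vehicle wells; lower values mean less growth of the strain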
Study Conditions: S. cerevisiae deletion strains, growth OD, locus YGR229C, strain SMI1, stronger effect = lower value
The whole screen tested about 5,500 compounds, of which about 2,000 (36%) were called active. Inconclusive results (about 18%) are left out. The list shows a part of the results.
Metric Name: normalized growth
Form field (numeric): enter value without unit.

1. CC[C@H]1CN2CCC1C[C@@H]2[C@@H](O)c1ccnc2ccc(OC)cc12 (stereo not given in full); 0.977

Query block: For CC1CCCC(C)N1NC(=O)c1ccc(Cl)c(S(N)(=O)=O)c1 (stereo not given) , what is its reported normalized growth?
Result block: 0.991

Query block: For CC1Cc2ccccc2N1NC(=O)c1ccc(Cl)c(S(N)(=O)=O)c1 (stereo not given) , what is its reported normalized growth?
Result block: 1.02

Query block: For `CN(C)CC[C@H](c1ccc(Cl)cc1)c1ccccn1` , what is its reported normalized growth?
Result block: 1.01

Query block: For C[C@H]1CC2C3CCC4=CC(=O)C=C[C@]4(C)[C@@]3(Cl)[C@@H](O)C[C@]2(C)[C@@]1(O)C(=O)CO (stereo not given in full) , what is its reported normalized growth?
Result block: 0.994
